biological target: NS3-NS4 protease (Hepatitis C virus genotype 1a, UniProt P27958); construct: Recombinant E. coli or Baculovirus full-length NS3 was diluted to 3.33 μM with assay buffer; made in house; host or cells: E. coli or baculovirus (BV) system; experiment: NS3-NS4 protease assay / NS3 inhibition assay, Section D; format: biochemical
Sequence (P27958 1027-1657): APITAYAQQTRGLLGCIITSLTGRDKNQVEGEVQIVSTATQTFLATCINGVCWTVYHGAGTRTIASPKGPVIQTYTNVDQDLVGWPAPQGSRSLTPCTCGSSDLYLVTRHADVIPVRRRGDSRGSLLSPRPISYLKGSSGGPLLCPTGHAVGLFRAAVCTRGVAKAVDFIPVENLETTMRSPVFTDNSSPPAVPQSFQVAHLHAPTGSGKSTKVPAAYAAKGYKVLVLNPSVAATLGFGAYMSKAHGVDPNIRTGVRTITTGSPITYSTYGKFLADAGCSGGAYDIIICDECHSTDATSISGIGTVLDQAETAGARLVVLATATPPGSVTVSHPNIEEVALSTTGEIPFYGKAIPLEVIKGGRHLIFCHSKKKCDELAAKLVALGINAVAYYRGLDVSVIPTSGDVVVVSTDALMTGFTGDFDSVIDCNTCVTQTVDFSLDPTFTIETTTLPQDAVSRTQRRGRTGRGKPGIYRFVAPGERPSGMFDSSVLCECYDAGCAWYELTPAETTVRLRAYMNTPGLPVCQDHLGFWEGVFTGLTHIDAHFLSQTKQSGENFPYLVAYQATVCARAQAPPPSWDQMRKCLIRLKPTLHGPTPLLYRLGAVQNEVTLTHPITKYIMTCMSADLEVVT
pIC50: −log10 of the molar value.
Overview of reported pIC50 across a group of compounds:

Exam item: What value of pIC50 on NS3-NS4 protease (Hepatitis C virus genotype 1a, UniProt P27958) does CC(C)(C)OC(=O)N[C@H]1CCCCC/C=C\[C@@H]2C[C@@]2(C(=O)NS(=O)(=O)C2CC2)NC(=O)[C@@H]2C[C@@H](NC(=O)c3cnc4ccccc4c3)CN2C1=O [Example 29] have?
Marked response: > 7.00

Exam item: What value of pIC50 on NS3-NS4 protease (Hepatitis C virus genotype 1a, UniProt P27958) does COc1ccc(C(=O)N[C@@H]2C[C@H]3C(=O)N[C@]4(C(=O)NS(=O)(=O)C5CC5)C[C@H]4/C=C\CCCCC[C@H](NC(=O)OC(C)(C)C)C(=O)N3C2)cc1 [Example 6] have?
Marked response: > 7.00

Exam item: What value of pIC50 on NS3-NS4 protease (Hepatitis C virus genotype 1a, UniProt P27958) does CC(C)(C)OC(=O)N[C@H]1CCCCC/C=C\[C@@H]2C[C@@]2(C(=O)NS(=O)(=O)C2CC2)NC(=O)[C@@H]2C[C@@H](NC(=O)c3cc4cc(OC(F)(F)F)ccc4[nH]3)CN2C1=O [Example 36] have?
Marked response: > 7.00

Exam item: What value of pIC50 on NS3-NS4 protease (Hepatitis C virus genotype 1a, UniProt P27958) does CC(C)(C)CC(=O)N[C@H]1CCCCC/C=C\[C@@H]2C[C@@]2(C(=O)NS(=O)(=O)C2CC2)NC(=O)[C@@H]2C[C@@H](NC(=O)c3sc4ccccc4c3Cl)CN2C1=O [Example 51] have?
Marked response: > 7.00

Exam item: What value of pIC50 on NS3-NS4 protease (Hepatitis C virus genotype 1a, UniProt P27958) does CC(C)(C)OC(=O)N[C@H]1CCCCC/C=C\[C@@H]2C[C@@]2(C(=O)NS(=O)(=O)C2CC2)NC(=O)[C@@H]2C[C@@H](NC(=O)c3cccc(C#N)c3)CN2C1=O [Example 10] have?
Marked response: > 7.00

* * *

target: NS3-NS4A protease (Hepatitis C virus genotype 1a); construct: Recombinant E. coli or Baculovirus full-length NS3 was diluted to 3.33 μM with assay buffer; made in house; host or cells: E. coli or baculovirus (BV) system; test: NS3-NS4A protease assay (NS3 inhibition assay, RETS1 substrate), Section B; type: biochemical; conditions: read-out: NS3-NS4A IC50
Sequence (P27958 1027-1657): as above
pIC50: −log10 of the molar value.
ENDPOINT_NAME: pIC50

Solved cases below.
CC(C)C(=O)N[C@H]1CCCCC/C=C\[C@@H]2C[C@@]2(C(=O)O)NC(=O)[C@@H]2C[C@@H](OC(=O)N3CCc4ccccc4C3)CN2C1=O > 5.00
CC(C)(C)OC(=O)N[C@H]1CCCCC/C=C\[C@@H]2C[C@@]2(C(=O)O)NC(=O)[C@@H]2C[C@@H](OC(=O)N3CCc4ccccc43)CN2C1=O > 6.00

Exam item: Need pIC50 of C[C@@H]1CN(C(=O)O[C@@H]2C[C@H]3C(=O)N[C@]4(C(=O)NS(=O)(=O)C5CC5)C[C@H]4/C=C\CCCCC[C@H](NC(=O)OC(C)(C)C)C(=O)N3C2)Cc2ccccc21 , thanks.
Marked response: > 7.00

Exam item: Need pIC50 of CC(C)(C)OC(=O)N[C@H]1CCCCC/C=C\[C@@H]2C[C@@]2(C(=O)O)NC(=O)[C@@H]2C[C@@H](OC(=O)N3Cc4ccc(OCCN5CCOCC5)cc4C3)CN2C1=O , thanks.
Marked response: > 7.00

Exam item: Need pIC50 of O=C(N[C@H]1CCCCC/C=C\[C@@H]2C[C@@]2(C(=O)NS(=O)(=O)C2CC2)NC(=O)[C@@H]2C[C@@H](OC(=O)N3Cc4ccccc4C3)CN2C1=O)OC1CCOCC1 , thanks.
Marked response: > 7.00
